# Assayed System: UniProt:P08684
# Sequence (P08684 whole entry): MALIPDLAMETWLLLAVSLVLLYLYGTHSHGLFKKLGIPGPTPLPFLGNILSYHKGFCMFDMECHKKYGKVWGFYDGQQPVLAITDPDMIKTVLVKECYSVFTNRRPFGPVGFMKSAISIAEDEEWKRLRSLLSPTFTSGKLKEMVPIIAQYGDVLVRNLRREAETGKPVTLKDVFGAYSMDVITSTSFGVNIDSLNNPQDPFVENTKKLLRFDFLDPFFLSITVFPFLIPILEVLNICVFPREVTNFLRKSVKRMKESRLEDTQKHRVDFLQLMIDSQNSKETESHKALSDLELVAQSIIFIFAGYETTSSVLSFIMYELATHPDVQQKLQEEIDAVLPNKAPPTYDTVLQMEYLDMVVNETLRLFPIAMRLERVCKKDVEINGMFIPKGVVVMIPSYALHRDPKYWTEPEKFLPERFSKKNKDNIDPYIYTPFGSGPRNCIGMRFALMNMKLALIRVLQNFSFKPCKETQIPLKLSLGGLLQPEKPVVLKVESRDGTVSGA
# Test: Induction of CYP3A4 in human hepatocytes
# Format: ADME, cell-based, Hepatocyte
Parameter Measured: EC50 (nM)

>>> df
                               entry_smiles  recorded_measurement
0  Fc1cc(F)c(F)c(-c2ccc(N[C@H]3C[C@@H]4CN(CC5CCOCC5)C[C@@H]4C3)nn2)c1                  1900

====

# Test: Elimination half life in Sprague-Dawley rat at 1 mg/kg, iv measured upto 24 hrs by LC-MS/MS analysis
# Type: ADME, organism-based
# Study Conditions: in vivo, read-out: beta t1/2 (converted)
Parameter Measured: half-life (h)

In [3]: df
Out[3]:
                               entry_smiles  unit_tag  recorded_measurement
0  Fc1cc(F)c(F)c(-c2ccc(N[C@H]3C[C@@H]4CN(CC5CCOCC5)C[C@@H]4C3)nn2)c1         h                    13

The values you see were collected from ChEMBL document CHEMBL4837245.
